// pIC50 collected for Platelet-derived growth factor receptor alpha (Homo sapiens, UniProt P16234)
# log scale: pIC50 equals minus log10 of the concentration in mol/L

{"smiles repr": "CNc1ncc2c(-c3ccc(N4CCN(C)CC4)nc3)nn(CC3CCCC3)c2n1", "val": 6.00}

Q) Item Nc1nc(Nc2ccc3c(c2)CC[C@@H](N2CCCC2)CC3)nn1-c1cc2c(nn1)-c1ccccc1CCC2 has what recorded pIC50?
A) 7.70

* * *

pIC50 values for the molecules below.
test system: Receptor-type tyrosine-protein kinase FLT3 (Homo sapiens, UniProt P36888, ITD)
Sequence (P36888 whole entry, looked up, change not shown): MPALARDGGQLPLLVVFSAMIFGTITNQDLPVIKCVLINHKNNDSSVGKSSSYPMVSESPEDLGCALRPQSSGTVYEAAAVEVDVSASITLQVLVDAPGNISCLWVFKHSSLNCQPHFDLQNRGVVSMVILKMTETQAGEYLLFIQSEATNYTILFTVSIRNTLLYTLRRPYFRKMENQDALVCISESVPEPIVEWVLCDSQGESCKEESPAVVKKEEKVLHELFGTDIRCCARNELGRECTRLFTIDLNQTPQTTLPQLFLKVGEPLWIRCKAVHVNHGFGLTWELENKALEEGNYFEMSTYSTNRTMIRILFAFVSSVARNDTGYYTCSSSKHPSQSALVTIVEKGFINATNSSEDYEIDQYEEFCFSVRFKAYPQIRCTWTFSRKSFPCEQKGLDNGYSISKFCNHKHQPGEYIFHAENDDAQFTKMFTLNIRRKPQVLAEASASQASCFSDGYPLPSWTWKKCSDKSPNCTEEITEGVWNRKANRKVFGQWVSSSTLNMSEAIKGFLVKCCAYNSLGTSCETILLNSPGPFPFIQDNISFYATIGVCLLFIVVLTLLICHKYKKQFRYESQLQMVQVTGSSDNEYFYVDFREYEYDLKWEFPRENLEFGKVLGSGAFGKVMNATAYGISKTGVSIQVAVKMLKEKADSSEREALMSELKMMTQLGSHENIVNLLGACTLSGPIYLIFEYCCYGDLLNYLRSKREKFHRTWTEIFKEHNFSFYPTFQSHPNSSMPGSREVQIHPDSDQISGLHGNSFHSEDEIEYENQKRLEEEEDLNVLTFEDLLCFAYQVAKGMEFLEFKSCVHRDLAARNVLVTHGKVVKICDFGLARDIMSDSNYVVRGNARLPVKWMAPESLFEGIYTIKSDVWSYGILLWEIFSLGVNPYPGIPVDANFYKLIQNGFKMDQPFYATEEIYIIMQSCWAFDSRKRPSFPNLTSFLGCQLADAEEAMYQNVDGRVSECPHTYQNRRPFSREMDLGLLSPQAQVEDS
assay remarks: Inhibition of human partial length FLT3 ITD mutant expressed in bacterial expression system using poly [Glu, Try] 4:1 as substrate in presence of [gamma-33P]ATP
# log scale: pIC50 equals minus log10 of the concentration in mol/L

{"smiles repr": "CNc1ncc2c(-c3ccc(N4CCN(C)CC4)nc3)nn(CC3CCCC3)c2n1", "property measured": "pIC50", "val": 7.52}

Then there is this molecule:
Q) Item Nc1nc(Nc2ccc3c(c2)CC[C@@H](N2CCCC2)CC3)nn1-c1cc2c(nn1)-c1ccccc1CCC2 has what recorded pIC50?
A) 8.22

* * *

test system: Tyrosine-protein kinase Mer (Homo sapiens)
Sequence (Q12866 whole entry): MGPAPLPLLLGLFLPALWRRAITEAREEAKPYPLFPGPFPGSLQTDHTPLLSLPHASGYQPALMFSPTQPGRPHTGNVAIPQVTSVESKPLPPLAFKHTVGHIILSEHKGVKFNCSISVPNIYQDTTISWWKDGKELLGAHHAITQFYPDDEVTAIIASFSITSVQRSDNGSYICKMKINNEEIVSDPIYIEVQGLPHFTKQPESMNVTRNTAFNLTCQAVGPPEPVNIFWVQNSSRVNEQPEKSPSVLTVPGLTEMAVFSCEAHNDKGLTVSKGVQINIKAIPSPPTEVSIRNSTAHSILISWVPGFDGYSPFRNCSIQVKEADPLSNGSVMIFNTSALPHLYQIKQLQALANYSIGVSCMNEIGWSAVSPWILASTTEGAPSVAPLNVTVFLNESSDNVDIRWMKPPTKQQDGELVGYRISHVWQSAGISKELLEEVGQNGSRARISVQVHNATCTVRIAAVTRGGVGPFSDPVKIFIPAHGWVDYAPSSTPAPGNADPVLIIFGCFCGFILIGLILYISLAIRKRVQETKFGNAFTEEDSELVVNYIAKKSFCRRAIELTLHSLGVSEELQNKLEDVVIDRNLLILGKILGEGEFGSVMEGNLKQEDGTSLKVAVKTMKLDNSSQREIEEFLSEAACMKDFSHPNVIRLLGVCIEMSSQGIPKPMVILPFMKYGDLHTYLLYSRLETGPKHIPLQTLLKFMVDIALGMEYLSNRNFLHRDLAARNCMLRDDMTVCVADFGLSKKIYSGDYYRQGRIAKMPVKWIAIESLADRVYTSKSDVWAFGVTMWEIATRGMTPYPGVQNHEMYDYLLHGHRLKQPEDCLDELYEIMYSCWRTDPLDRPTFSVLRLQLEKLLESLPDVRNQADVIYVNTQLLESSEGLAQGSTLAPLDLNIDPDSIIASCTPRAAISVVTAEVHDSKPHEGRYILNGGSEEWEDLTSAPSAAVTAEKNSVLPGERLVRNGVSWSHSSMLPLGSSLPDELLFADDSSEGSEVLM
property measured: pIC50
# log scale: pIC50 equals minus log10 of the concentration in mol/L

Some molecules with recorded pIC50:
{"smiles repr": "CNc1ncc2c(-c3ccc(N4CCNCC4)nc3)nn(CC3OCCO3)c2n1", "val": 5.21}
{"smiles repr": "CNc1ncc2c(-c3ccc(N4CCN(C)CC4)nc3)nn(CC3CCCC3)c2n1", "val": 6.32}
{"smiles repr": "CNc1ncc2c(-c3ccc(OC)cc3)nn(CC3OCCO3)c2n1", "val": 5.06}

Q) Item CCN1CCN(c2ccc(-c3nn(CC4CCCC4)c4nc(NC)ncc34)cn2)CC1 has what recorded pIC50?
A) 5.60

Q) Do the same for CNc1ncc2c(-c3ccc(N4CCN(C(=O)C(C)(C)C)CC4)nc3)nn(Cc3cn(Cc4ccccc4)nn3)c2n1 please
A) 5.27

* * *

test system: Epithelial discoidin domain-containing receptor 1 (Homo sapiens)
Sequence (Q08345 whole entry, the tested form may be a part): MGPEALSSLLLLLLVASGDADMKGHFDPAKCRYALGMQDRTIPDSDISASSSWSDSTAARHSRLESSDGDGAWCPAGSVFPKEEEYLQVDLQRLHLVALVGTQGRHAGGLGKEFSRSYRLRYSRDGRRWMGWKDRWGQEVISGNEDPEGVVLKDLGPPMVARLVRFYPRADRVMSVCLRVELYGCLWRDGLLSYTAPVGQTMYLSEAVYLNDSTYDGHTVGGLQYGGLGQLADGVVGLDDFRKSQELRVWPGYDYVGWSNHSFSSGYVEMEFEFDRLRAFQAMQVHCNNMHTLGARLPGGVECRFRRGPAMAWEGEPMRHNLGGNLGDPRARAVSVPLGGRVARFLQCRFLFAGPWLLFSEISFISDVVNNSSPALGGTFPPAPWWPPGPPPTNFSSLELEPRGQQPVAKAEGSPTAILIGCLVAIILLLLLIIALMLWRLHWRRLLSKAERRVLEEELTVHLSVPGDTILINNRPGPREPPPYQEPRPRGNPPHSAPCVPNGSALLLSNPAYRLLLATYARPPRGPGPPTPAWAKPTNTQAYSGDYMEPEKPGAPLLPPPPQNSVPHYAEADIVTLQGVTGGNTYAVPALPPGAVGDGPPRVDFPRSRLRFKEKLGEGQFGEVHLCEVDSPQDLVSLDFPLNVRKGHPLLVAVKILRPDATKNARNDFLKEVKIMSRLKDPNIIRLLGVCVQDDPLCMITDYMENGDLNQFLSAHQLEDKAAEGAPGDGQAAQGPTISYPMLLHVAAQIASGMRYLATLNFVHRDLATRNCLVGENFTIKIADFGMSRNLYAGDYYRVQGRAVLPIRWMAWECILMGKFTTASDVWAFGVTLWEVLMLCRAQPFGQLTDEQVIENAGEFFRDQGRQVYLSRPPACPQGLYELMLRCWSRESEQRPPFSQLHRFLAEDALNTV
property measured: pIC50
# log scale: pIC50 equals minus log10 of the concentration in mol/L

Q) Item Nc1nc(Nc2ccc3c(c2)CC[C@@H](N2CCCC2)CC3)nn1-c1cc2c(nn1)-c1ccccc1CCC2 [BEMCENTINIB] has what recorded pIC50?
A) 7.70

Q) Do the same for CNc1ncc2c(-c3ccc(N4CCN(C)CC4)nc3)nn(CC3CCCC3)c2n1 please
A) 7.00

* * *

Organism: Mus musculus
assay remarks: Antiproliferative activity against mouse AXL-positive Breast cancer cells after 5 days by PrestoBlue assay
Assay type: functional
Calls of active or inactive are those of the source. No cut-off for these calls is given here.
# output must be one of t = active, f = inactive

Below, 3 compounds whose answers are already recorded.
{"smiles repr": "CNc1ncc2c(-c3ccc(N4CCNCC4)nc3)nn(Cc3cn(Cc4ccccc4)nn3)c2n1", "label": "t"}
{"smiles repr": "CNc1ncc2c(-c3ccc(N4CCNCC4)nc3)nn(Cc3cn(-c4ccccc4)nn3)c2n1", "label": "f"}
{"smiles repr": "CNc1ccc(-c2nn(Cc3cn(Cc4ccccc4)nn3)c3nc(NC)ncc23)cn1", "label": "f"}

Please examine the following record next.
Q) Field: outcome | Entry: CNc1ncc2c(-c3ccc(N4CCNCC4)nc3)nn(Cc3cn(-c4ccsc4C(=O)OC)nn3)c2n1
A) t

This collection of values is drawn from ChEMBL document CHEMBL4184298.
